A collection of binders and their measured kon
# tgt: Bac-F (UniProt P03420 26-524)
# Sequence (P03420 26-524): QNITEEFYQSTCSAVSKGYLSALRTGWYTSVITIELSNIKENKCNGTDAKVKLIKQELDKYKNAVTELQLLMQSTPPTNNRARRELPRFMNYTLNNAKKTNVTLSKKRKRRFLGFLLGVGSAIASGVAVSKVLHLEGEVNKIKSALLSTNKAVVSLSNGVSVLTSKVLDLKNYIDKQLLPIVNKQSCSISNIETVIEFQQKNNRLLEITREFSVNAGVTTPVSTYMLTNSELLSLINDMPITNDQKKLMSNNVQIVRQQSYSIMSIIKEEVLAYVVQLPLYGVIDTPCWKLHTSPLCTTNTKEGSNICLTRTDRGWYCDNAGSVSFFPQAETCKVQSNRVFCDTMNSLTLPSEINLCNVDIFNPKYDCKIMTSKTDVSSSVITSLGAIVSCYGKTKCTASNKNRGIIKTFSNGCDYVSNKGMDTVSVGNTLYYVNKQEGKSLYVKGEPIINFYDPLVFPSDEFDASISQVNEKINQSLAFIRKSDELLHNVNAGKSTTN
# assay_overview: BIAcore, Mab vs Bac-F, 1:1
Number only, in M⁻¹ s⁻¹; omit the unit.

P12f4 (monoclonal antibody) (antibody, V domains shown) VH: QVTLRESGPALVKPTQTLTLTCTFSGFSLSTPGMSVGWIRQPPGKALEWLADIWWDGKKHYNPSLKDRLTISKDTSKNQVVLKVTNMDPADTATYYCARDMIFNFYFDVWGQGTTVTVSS VL: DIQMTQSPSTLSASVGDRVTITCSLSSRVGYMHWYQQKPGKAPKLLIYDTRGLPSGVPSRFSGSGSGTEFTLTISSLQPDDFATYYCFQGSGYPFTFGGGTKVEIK    495000
P12f2 (monoclonal antibody) (antibody, V domains shown, also called Pf12; P1212) VH: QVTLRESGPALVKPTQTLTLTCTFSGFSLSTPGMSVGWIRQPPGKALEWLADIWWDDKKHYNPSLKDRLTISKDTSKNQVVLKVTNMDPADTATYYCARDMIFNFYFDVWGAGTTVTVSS VL: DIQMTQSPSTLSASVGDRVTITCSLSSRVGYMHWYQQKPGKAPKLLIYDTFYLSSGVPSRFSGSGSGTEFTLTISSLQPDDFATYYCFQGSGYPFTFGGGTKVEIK    407000

Next up:
Query: Recall and state the measured kon for A8c7 (monoclonal antibody) (antibody, V domains shown) VH: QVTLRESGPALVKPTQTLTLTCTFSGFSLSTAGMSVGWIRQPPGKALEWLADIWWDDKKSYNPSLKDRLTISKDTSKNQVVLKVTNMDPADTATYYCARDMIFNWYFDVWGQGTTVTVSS VL: DIQMTQSPSTLSASVGDRVTITCSPSSRVGYMHWYQQKPGKAPKLLIYDTRYQSSGVPSRFSGSGSGTEFTLTISSLQPDDFATYYCFQGSGYPFTFGGGTKLEIK .
Result: 417000
